target system: GABA-A receptor; anion channel (Rattus norvegicus) (UniProt O09028+P15431+P18506+P18508+P19969+P20236+P23574+P23576+P28471+P28473+P30191+P62813+P63079+P63138+Q91ZM7+Q9ES14)
assay remarks: Percent displacement of [3H]GABA (1 mM) from Gamma-aminobutyric acid A receptor of rat cerebral cortex
Assay type: tissue-based
assay readout: inhibition

# molecule, value measured
measured = [
    ("O=C(O)Cc1cccc(OCCCc2ccccc2)c1", "17.4%"),
    ("O=C(O)Cc1cccc(OCCc2ccccc2)c1", "15.1%"),
    ("O=C(O)Cc1cccc(O)c1 [3-Hydroxyphenylacetate]", "44.2%"),
    ("O=C(O)CCCOc1ccccc1", "6.3%"),
    ("O=C(O)Cc1cccc(OCc2ccccc2)c1", "11%"),
    ("O=C(O)CCCO", "35.5%"),
    ("O=C(O)Cc1cccc(Oc2ccccc2)c1", "2.7%"),
]
